assay: in vitro; set-up: species or system HB2, HEK293; conditions: human, ccd841 cells
Recorded viability at 48 h, 10 µM by entry
Endpoint: viability at 48 h, 10 µM (%)

Molecule: CC(NC(=O)CCl)C1CC1 (stereo not drawn)
Endpoint: viability at 48 h, 10 µM
Unit of measurement: %
Endpoint result: 103

Molecule: COc1cccc2sc(NC(=O)CCl)nc12.Cl
Endpoint: viability at 48 h, 10 µM
Unit of measurement: %
Endpoint result: 48.9

Molecule: Cc1n[nH]c(C)c1NC(=O)CCl
Endpoint: viability at 48 h, 10 µM
Unit of measurement: %
Endpoint result: 98.7

Molecule: CC(C)(C)c1ccc(NC(=O)CCl)cc1
Endpoint: viability at 48 h, 10 µM
Unit of measurement: %
Endpoint result: 38.7

Molecule: Cl.O=C(CCl)N1CCN(c2cnccn2)CC1
Endpoint: viability at 48 h, 10 µM
Unit of measurement: %
Endpoint result: 97.2

Molecule: O=C(CCl)Nc1ccc(Cl)nc1
Endpoint: viability at 48 h, 10 µM
Unit of measurement: %
Endpoint result: 33.2

Molecule: COC(=O)c1cccc(NC(=O)CCl)n1
Endpoint: viability at 48 h, 10 µM
Unit of measurement: %
Endpoint result: 101

Molecule: Cc1ccc(C)c(S(=O)(=O)N2CCN(C(=O)CCl)CC2)c1
Endpoint: viability at 48 h, 10 µM
Unit of measurement: %
Endpoint result: 37.7

Molecule: C=CC(=O)N1CCCc2ccccc21
Endpoint: viability at 48 h, 10 µM
Unit of measurement: %
Endpoint result: 109

Molecule: O=C(CCl)N1CCN(C(=O)c2ccco2)CC1
Endpoint: viability at 48 h, 10 µM
Unit of measurement: %
Endpoint result: 73.2

Molecule: O=C(CCl)Nc1ccc(Br)cc1Cl
Endpoint: viability at 48 h, 10 µM
Unit of measurement: %
Endpoint result: 74.6

Molecule: O=C(CCl)Nc1ccc([N+](=O)[O-])cc1Cl
Endpoint: viability at 48 h, 10 µM
Unit of measurement: %
Endpoint result: 53.9

---

Molecular target: OTUB2 (OTUB2A) (Homo sapiens, UniProt Q96DC9)
Construct: full length residues 1-234, E. coli BL21(DE3)-R3, His tag removed by TEV, construct 27312 Da
Sequence (Q96DC9 whole entry, the tested form may be a part): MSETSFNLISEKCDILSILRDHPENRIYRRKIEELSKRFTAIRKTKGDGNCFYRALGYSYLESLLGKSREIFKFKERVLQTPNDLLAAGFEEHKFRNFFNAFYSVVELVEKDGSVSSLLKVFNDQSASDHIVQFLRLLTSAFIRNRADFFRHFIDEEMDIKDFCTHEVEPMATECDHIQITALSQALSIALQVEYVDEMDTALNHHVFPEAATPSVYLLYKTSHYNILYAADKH
Set-up: Intact protein LC/MS covalent labelling, fragments in pools of five, 200 uM each, 4 °C
Conditions: 24 h, 4 °C, pool of five; 200 µM; covalent
Experimental: Incubations were performed at 200 μM for each compound and 2 μM of protein (10 μM for BSA) for 24 h at 4 °C with moderate shaking. […] Following incubation, we used intact protein [compound left out] chromatography/mass spectrometry (LC/MS) to identify the fragments and quantify their labeling (Figure 3A). […]

Smiles string: C=CC(=O)N1CC(Oc2ccc(C#N)cc2)C1
OTUB2: 0.07
//
Smiles string: CN(C)S(=O)(=O)c1ccc2c(c1)CCCN2C(=O)CCl
OTUB2: 0
//
Smiles string: Cc1ccc(CN(C)C(=O)CCl)o1
OTUB2: 0
//
Smiles string: O=C(CCl)Nc1ccc(Cl)c([N+](=O)[O-])c1
OTUB2: 0.36
//
Smiles string: CC(C)N(CC(F)(F)F)C(=O)CCl
OTUB2: 0
//
Smiles string: CC1CCN(C(=O)CCl)CC1
OTUB2: 0
//
Smiles string: C=CC(=O)Nc1cc(CC(C)(C)C)nn1C
OTUB2: 0
//
Smiles string: O=C(CCl)NC(=O)c1ccccc1Cl
OTUB2: 0
//
Smiles string: Cc1ccc(NC(=O)NC(=O)CCl)cc1
OTUB2: 0
//
Smiles string: Cc1ccc(NC(=O)CCl)c(F)c1
OTUB2: 0.14
//
Smiles string: O=C1CN(C(=O)CCl)C2(CCCCC2)C(=O)N1
OTUB2: 0.05

---

assay: in vitro; parameters: species or system HB2, CCD841; details: human, hek293 cells
Endpoint: viability at 48 h, 10 µM (%)

Compound: CC(NC(=O)CCl)c1cccs1 (stereo not shown)
Endpoint result: 75.1
--
Compound: O=C(CCl)NNC(=O)c1ccc([N+](=O)[O-])cc1
Endpoint result: 92.9
--
Compound: O=C(CCl)Nc1ccc2c(c1)CCC2
Endpoint result: 4.7
--
Compound: Cc1cc(C)c(NC(=O)CCl)c(Cl)c1
Endpoint result: 74.1
--
Compound: CS(C)(=O)=NC(=O)CCl
Endpoint result: 102
--
Compound: CCN(C(=O)CCl)c1ccc(F)cc1
Endpoint result: 10.3
--
Compound: Cc1ccccc1CN(C)C(=O)CCl
Endpoint result: 11.6
--
Compound: CC(=O)c1ccccc1NC(=O)CCl
Endpoint result: 87.2
--
Compound: Cc1ccccc1NC(=O)CCl
Endpoint result: 55.1
--
Compound: N#CC1(NC(=O)CCl)CCCC1
Endpoint result: 44
--
Compound: C=CC(=O)N1CCC(c2nc3cccc(C)c3o2)CC1
Endpoint result: 94
--
Compound: CC(NC(=O)NC(=O)CCl)C1CC2CCC1C2 (stereo not shown)
Endpoint result: 91.4
--
Compound: O=C(CCl)NCc1nc2ccccc2s1
Endpoint result: 43
--
Compound: Cl.O=C(CCl)Nc1ccc(N2CCCC2)cc1
Endpoint result: 30.3
--
Compound: CC1CN(C(=O)CCl)CCO1 (stereo not shown)
Endpoint result: 85.9
--
Compound: O=C(CCl)NNC(=O)c1ccccc1F
Endpoint result: 93.1
--
Compound: Cc1ccc(CNC(=O)CCl)s1
Endpoint result: 106
--
Compound: O=C(CCl)NC1CCSC1=O (stereo not shown)
Endpoint result: 90.7
--
Compound: CC1CCCC(NC(=O)CCl)C1C (stereo not shown)
Endpoint result: 87.3
--
Compound: CN(C)c1ccc(Cl)cc1NC(=O)CCl
Endpoint result: 63.2
--
Compound: C=CC(=O)NCc1cnn2ccccc12
Endpoint result: 95.2
--
Compound: C=CC(=O)Nc1cc(N)ccc1F
Endpoint result: 75.6
--
Compound: Cc1ccc(C(=O)NNC(=O)CCl)cc1
Endpoint result: 268
--
Compound: Cc1nc(NC(=O)CCl)c(Cl)cc1Cl
Endpoint result: 101
--
Compound: Cl.O=C(CCl)N1CCN(Cc2ccc3c(c2)OCO3)CC1
Endpoint result: 31.7
--
Compound: Cl.O=C(CCl)N1CCN(Cc2cccs2)CC1
Endpoint result: 43.5
--
Compound: O=C(CCl)Nc1ccon1
Endpoint result: 64.8
--
Compound: Cc1ccc(S(=O)(=O)NC(=O)CCl)cc1
Endpoint result: 81.4
--
Compound: O=C(CCl)N1CCN(Cc2ccccc2)C1=O
Endpoint result: 90.9
--
Compound: COC(=O)c1cccc(NC(=O)CCl)n1
Endpoint result: 105
--
Compound: CCN(C(=O)CCl)C1CCS(=O)(=O)C1 (stereo not shown)
Endpoint result: 54.9
--
Compound: O=C(CCl)N1CCOC1=O
Endpoint result: 108
--
Compound: C=CC(=O)N1CC2CC3CC(C2)CC1C3
Endpoint result: 97.7
--
Compound: C=CC(=O)N(C)C1CCCCNC1=O (stereo not shown)
Endpoint result: 122

---

experiment: in vitro; parameters: species or system HB2, HEK293; settings: human, ccd841 cells
Endpoint: viability at 48 h, 10 µM (%)

Compound: Cc1cc(C)c(NC(=O)CCl)c(Cl)c1
Endpoint: viability at 48 h, 10 µM
Endpoint result: 73.1

Compound: Cc1ccc(-c2csc(NC(=O)CCl)n2)cc1
Endpoint: viability at 48 h, 10 µM
Endpoint result: 67.9

Compound: Cc1csc(CC(=O)NNC(=O)CCl)n1.Cl
Endpoint: viability at 48 h, 10 µM
Endpoint result: 79

Compound: C=CC(=O)Nc1ccccc1F
Endpoint: viability at 48 h, 10 µM
Endpoint result: 119

Compound: C=CCNC(=O)NC(=O)CCl
Endpoint: viability at 48 h, 10 µM
Endpoint result: 77.7

Compound: CC1CCCN(C(=O)C2CCN(C(=O)CCl)CC2)C1 (stereo not drawn)
Endpoint: viability at 48 h, 10 µM
Endpoint result: 80.1

Compound: C=CC(=O)N1CCCC(c2ncc3n2CCCC3)C1 (stereo not drawn)
Endpoint: viability at 48 h, 10 µM
Endpoint result: 108

Compound: Cc1ccc(NC(=O)CCl)cc1C
Endpoint: viability at 48 h, 10 µM
Endpoint result: 34.9

Compound: C=CC(=O)N1CCCC(c2nc3c(s2)CCCC3)C1 (stereo not drawn)
Endpoint: viability at 48 h, 10 µM
Endpoint result: 104

Compound: N#CC1(NC(=O)CCl)CCC1
Endpoint: viability at 48 h, 10 µM
Endpoint result: 81.1

Compound: C=CC(=O)N1CCC(c2nc(C(F)(F)F)c[nH]2)CC1
Endpoint: viability at 48 h, 10 µM
Endpoint result: 99.4

Compound: C=CC(=O)Nc1ccc(N2CCOCC2)cc1
Endpoint: viability at 48 h, 10 µM
Endpoint result: 113

Compound: Cc1c(C#N)c(NC(=O)CCl)n(-c2ccccc2)c1C
Endpoint: viability at 48 h, 10 µM
Endpoint result: 75.1

Compound: CC(NC(=O)CCl)c1ccc(F)cc1 (stereo not drawn)
Endpoint: viability at 48 h, 10 µM
Endpoint result: 83.2

Compound: C=CC(=O)N1CCCN(C(=O)C2CCCO2)CC1 (stereo not drawn)
Endpoint: viability at 48 h, 10 µM
Endpoint result: 108

Compound: C=CC(=O)NCC1=CS(=O)(=O)c2ccccc21
Endpoint: viability at 48 h, 10 µM
Endpoint result: 110

Compound: CC(=O)c1ccccc1NC(=O)CCl
Endpoint: viability at 48 h, 10 µM
Endpoint result: 90.3

Compound: O=C(CCl)NCc1nc2ccccc2s1
Endpoint: viability at 48 h, 10 µM
Endpoint result: 63.8

Compound: CC(C)(C)c1nnc(NC(=O)CCl)s1
Endpoint: viability at 48 h, 10 µM
Endpoint result: 67.5

Compound: O=C(CCl)NCC1CCCc2ccccc21 (stereo not drawn)
Endpoint: viability at 48 h, 10 µM
Endpoint result: 66.7

Compound: CC(C)c1cc(NC(=O)CCl)on1
Endpoint: viability at 48 h, 10 µM
Endpoint result: 69.9

Compound: C=CC(=O)N1CCC(Cc2ccccn2)CC1
Endpoint: viability at 48 h, 10 µM
Endpoint result: 112

Compound: CN(Cc1cnn(C)c1)C(=O)CCl.Cl
Endpoint: viability at 48 h, 10 µM
Endpoint result: 91.9

Compound: O=C(CCl)NC(=O)NC1CCCC1
Endpoint: viability at 48 h, 10 µM
Endpoint result: 80.2

Compound: O=C(CCl)N1N=C(c2ccco2)CC1c1ccco1 (stereo not drawn)
Endpoint: viability at 48 h, 10 µM
Endpoint result: 63.4

Compound: O=C(CCl)Nc1ccccc1Br
Endpoint: viability at 48 h, 10 µM
Endpoint result: 89.7

Compound: CC(C)CNC(=O)NC(=O)CCl
Endpoint: viability at 48 h, 10 µM
Endpoint result: 80.7
